# Measured on: monkey NPR1 (Macaca fascicularis)
# Sequence (A0A7N9DBT9 entry or part of it): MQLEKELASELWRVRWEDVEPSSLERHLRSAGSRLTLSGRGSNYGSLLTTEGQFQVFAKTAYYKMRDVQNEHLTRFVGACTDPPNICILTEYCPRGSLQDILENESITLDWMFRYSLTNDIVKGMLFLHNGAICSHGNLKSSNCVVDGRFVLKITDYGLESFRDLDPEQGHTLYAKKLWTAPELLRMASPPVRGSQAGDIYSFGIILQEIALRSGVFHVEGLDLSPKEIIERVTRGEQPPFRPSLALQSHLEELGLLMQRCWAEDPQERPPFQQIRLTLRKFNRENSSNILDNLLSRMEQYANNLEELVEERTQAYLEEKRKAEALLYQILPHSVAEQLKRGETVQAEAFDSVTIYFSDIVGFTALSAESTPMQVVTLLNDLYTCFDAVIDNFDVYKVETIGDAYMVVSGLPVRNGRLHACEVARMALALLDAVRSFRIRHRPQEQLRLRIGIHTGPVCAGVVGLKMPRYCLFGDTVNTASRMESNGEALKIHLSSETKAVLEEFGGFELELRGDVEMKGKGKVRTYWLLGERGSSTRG
# Assay method text: Cellular cGMP production assay, monkey NPR1 expressing CHO-K1 cells (CisBio HTRF)
# Assay type: cell-based
# Conditions: maximum cGMP production as percentage of the maximum cGMP produced with ANP, monkey NPR1 CHO-K1 cells
Hi there, I'd appreciate the recorded Monkey NPR1 Amax (% of ANP) for every entry that follows.

*Q* What value of Monkey NPR1 Amax (% of ANP) has been reported for the following compound? CC[C@@H](N(C)c1nc2c(c(N[C@H](CN3CCCCCC3)c3cnn(C)c3)n1)C[C@H](c1cccc(F)c1)CC2)C12CC(C(=O)O)(C1)C2
*A* 101.838 % of ANP

*Q* Same for CC[C@H]([C@H]1CC[C@H](C(=O)O)CC1)N(C)c1nc2c(c(N[C@@H](CN3CCC[C@H](C)C3)c3cnn(C)c3)n1)C[C@H](c1ccccc1F)CC2
*A* 101.062 % of ANP

*Q* Same for CC[C@H]([C@H]1CC[C@H](C(=O)O)CC1)N(C)c1nc2c(c(N[C@@H](CN3C4CCCC3CC4)c3cnn(C)c3)n1)C[C@H](c1cccc(F)c1)CC2
*A* 106.934 % of ANP

*Q* Same for CC[C@@H](Nc1nc2c(c(N[C@@H](CN3CCC[C@H](C)C3)c3cnn(C)c3)n1)C[C@](C)(c1ccccc1F)CC2)[C@H]1CC[C@H](C(=O)O)CC1
*A* 92.710 % of ANP

*Q* Same for CC[C@H]([C@H]1CC[C@H](C(=O)O)CC1)N(C)c1nc2c(c(N[C@@H](CN3CCC[C@H](C)C3)c3cnn(C)c3)n1)C[C@H](c1cccc(F)c1)CC2
*A* 132.182 % of ANP

*Q* Same for CC[C@H]([C@H]1CC[C@H](C(=O)O)CC1)N(C)c1nc2c(c(N[C@@H](CN3C[C@H]4C[C@@H](C3)C4O)c3cnn(C)c3)n1)C[C@H](c1ccccc1)CC2 (stereo partly shown)
*A* 101.929 % of ANP

*Q* Same for CCn1cc([C@H](CN2C3CCCC2CCC3)Nc2nc(N[C@H](C)c3ccc(C(=O)O)cc3)nc3c2C[C@H](c2cccc(F)c2)CC3)cn1
*A* 98.372 % of ANP

*Q* Same for CC[C@@H](Nc1nc2c(c(N[C@@H](CN3C4CCCC3CCC4)c3cnn(CC)c3)n1)C[C@H](c1cccc(F)c1)CC2)[C@H]1CC[C@H](C(=O)O)CC1
*A* 99.682 % of ANP

*Q* Same for CC[C@@H](Nc1nc2c(c(N[C@@H](CN3CCCCC3)c3cnn(CC)c3)n1)C[C@@H](c1cccc(F)c1)CC2)[C@H]1CC[C@H](C(=O)O)CC1
*A* 107.881 % of ANP

*Q* Same for CC(Nc1nc2c(c(N[C@@H](CN3CCCC3)c3ccccc3)n1)CC(c1ccccc1)CC2)[C@H]1CC[C@H](C(=O)O)CC1 (stereo partly shown)
*A* 165.777 % of ANP

*Q* Same for CC[C@H]([C@H]1CC[C@H](C(=O)O)CC1)N(C)c1nc2c(c(N[C@@H](CN3CCC[C@H](C)C3)c3cnn(C)c3)n1)CN(c1cccc(C#N)c1)CC2
*A* 97.462 % of ANP

*Q* Same for CC[C@@H](Nc1nc2c(c(N[C@@H](CN3CCC[C@H](C)C3)c3cnn(C)c3)n1)C[C@H](c1ccccc1)CC2)[C@H]1CC[C@H](C(=O)O)CC1
*A* 92.720 % of ANP

*Q* Same for CC[C@H]([C@H]1CC[C@H](C(=O)O)CC1)N(C)c1nc2c(c(N[C@@H](CN3CCC[C@H](C)C3)c3cnn(C)c3)n1)C[C@H](c1ccc(F)cc1)CC2
*A* 88.286 % of ANP

*Q* Same for CC[C@H]([C@H]1CC[C@H](C(=O)O)CC1)N(C)c1nc2c(c(N[C@@H](CN3CCCCC3)c3cnn(C)c3)n1)C[C@](C)(c1ccccc1)CC2
*A* 98.088 % of ANP

*Q* Same for CC[C@H]([C@H]1CC[C@H](C(=O)O)CC1)N(C)c1nc2c(c(N[C@@H](CN3CC4CCC3C4)c3cnn(C)c3)n1)C[C@](C)(c1ccccc1)CC2 (stereo partly shown)
*A* 101.066 % of ANP

*Q* Same for CC[C@H]([C@H]1CC[C@H](C(=O)O)CC1)N(C)c1nc2c(c(N[C@@H](CN3C4CCCC3CCC4)c3cnn(C)c3)n1)C[C@H](c1cccc(F)c1)CC2
*A* 128.079 % of ANP

*Q* Same for CC[C@@H](Nc1nc2c(c(N[C@@H](CN3CCCC3)c3ccccc3)n1)C[C@@H](c1ccccc1)CC2)[C@H]1CC[C@H](C(=O)O)CC1
*A* 106.285 % of ANP

*Q* Same for CC[C@H]([C@H]1CC[C@H](C(=O)O)CC1)N(C)c1nc2c(c(N[C@@H](CN3CCC[C@H](C)C3)c3cnn(C)c3)n1)C[C@](C)(c1ccccc1)CC2
*A* 102.341 % of ANP

*Q* Same for CC(C)n1cc([C@H](CN2CCCCC2)Nc2nc(N[C@H](C)c3ccc(C(=O)O)cc3)nc3c2C[C@H](c2ccccc2)CC3)cn1
*A* 83.963 % of ANP

*Q* Same for CC[C@@H](Nc1nc2c(c(N[C@@H](CN3C4CCCC3CCC4)c3cnn(CC)c3)n1)C[C@@H](c1cccc(F)c1)CC2)[C@H]1CC[C@H](C(=O)O)CC1
*A* 97.058 % of ANP

*Q* Same for CC[C@H]([C@H]1CC[C@H](C(=O)O)CC1)N(C)c1nc2c(c(N[C@@H](CN3CCC(C)CC3)c3cnn(C)c3)n1)C[C@H](c1ccccc1)CC2
*A* 103.150 % of ANP

*Q* Same for CC[C@H]([C@H]1CC[C@H](C(=O)O)CC1)N(C)c1nc2c(c(N[C@@H](CN3C4CCCC3CC4)c3cnn(C)c3)n1)CN(c1ccc(F)cc1)CC2
*A* 102.546 % of ANP
